These measurements were taken from paper PMC7528078.

TARGET_OR_TEST_SYSTEM: AF647-p53 (p53-SNAP labeled with AF647) (human, UniProt P04637 1-393)
Sequence (P04637 whole entry): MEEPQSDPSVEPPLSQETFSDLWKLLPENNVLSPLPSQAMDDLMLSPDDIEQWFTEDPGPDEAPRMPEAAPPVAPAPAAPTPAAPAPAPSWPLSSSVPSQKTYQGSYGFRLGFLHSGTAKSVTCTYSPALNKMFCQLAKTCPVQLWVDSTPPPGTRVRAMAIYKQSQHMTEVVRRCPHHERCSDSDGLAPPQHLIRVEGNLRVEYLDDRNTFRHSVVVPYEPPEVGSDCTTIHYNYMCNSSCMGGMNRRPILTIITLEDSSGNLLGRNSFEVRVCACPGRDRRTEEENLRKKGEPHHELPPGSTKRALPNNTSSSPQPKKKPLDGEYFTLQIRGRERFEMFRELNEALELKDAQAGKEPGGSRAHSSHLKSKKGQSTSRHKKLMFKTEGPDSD
ASSAY_INFO: EMSA; sub-nM affinity, assuming tetramer; EMSA: 25 mM HEPES pH 7.9, 50 mM KCl, 2.5 mM MgCl2, 1 mM EDTA, 10% glycerol, 0.1% NP-40, 1 mM DTT, 0.05 mg/mL BSA, room temp 30 min; TIRF: 25 mM Tris pH 7.9, 50
CONDITION_INFO: protein: recombinant; tags: N-terminal His; C-terminal SNAP tag with AlexaFluor647; chain copies: 4; label: 5' 32P on reverse strand; blunt
METRIC: Kd

Problem: Name the recorded Kd for wild type DNA (EMSA) (dsDNA) DNA 1: TAGAGCGAACATGTCTAAGCATGCTGGCGTCG DNA 2: CGACGCCAGCATGCTTAGACATGTTCGCTCTA .
Result: < 1 nM
